# Tested on: Bacillus subtilis
# Measurement description: Antibacterial activity against Bacillus subtilis assessed as growth inhibition after 24 hr by NCCLS broth micro-dilution method
# Format: functional
Quantity measured: MIC (µg/mL)
Kindly answer with a numeric value in µg/mL, unit omitted.

Query block: Request the reported MIC associated with COc1ccc(C(=O)NC(=S)Nc2ccc(S(N)(=O)=O)cc2)c(OC)c1OC
Result block: 0.156

Query block: Request the reported MIC associated with NS(=O)(=O)c1ccc(NC(=S)NC(=O)c2ccc(Cl)cc2Cl)cc1
Result block: 0.313

Query block: Request the reported MIC associated with NS(=O)(=O)c1ccc(NC(=S)NC(=O)Cc2ccccc2)cc1
Result block: 0.313

Query block: Request the reported MIC associated with NS(=O)(=O)c1ccc(NC(=S)NC(=O)c2ccc([N+](=O)[O-])cc2)cc1
Result block: 0.156

Query block: Request the reported MIC associated with COc1cc(OC)cc(C(=O)NC(=S)Nc2ccc(S(N)(=O)=O)cc2)c1
Result block: 0.313

Query block: Request the reported MIC associated with NS(=O)(=O)c1ccc(NC(=S)NC(=O)c2cccc(Cl)c2)cc1
Result block: 0.156

Query block: Request the reported MIC associated with Cc1ccccc1C(=O)NC(=S)Nc1ccc(S(N)(=O)=O)cc1
Result block: 0.625

Query block: Request the reported MIC associated with COc1cccc(C(=O)NC(=S)Nc2ccc(S(N)(=O)=O)cc2)c1OC
Result block: 0.313

Query block: Request the reported MIC associated with NS(=O)(=O)c1ccc(NC(=S)NC(=O)c2ccc(Cl)cc2)cc1
Result block: 0.156

Query block: Request the reported MIC associated with NS(=O)(=O)c1ccc(NC(=S)NC(=O)c2cccc([N+](=O)[O-])c2)cc1
Result block: 0.313
